- assay: Approximate solubility of crystal form A in different solvents (manual stepwise dilution)
- Assay type: physicochemical
- reported_conditions: organic solvent or mixture, thermodynamic from solid; Ethanol, ambient temperature
quantity_measured: solubility

Input: Return reported solubility. Input compound: CC1(c2ccc(=O)n(-c3ccsc3)c2)COC1 [crystal form A]
Output: 51 to 102 mg/mL

* * *

- assay: Approximate solubility of crystal form A in different solvents (manual stepwise dilution)
- Type: physicochemical
- reported_conditions: aqueous with cosolvent or surfactant or cyclodextrin, thermodynamic from solid; Isopropanol-water (1:1), ambient temperature
quantity_measured: solubility

Input: Return reported solubility. Input compound: CC1(c2ccc(=O)n(-c3ccsc3)c2)COC1 [crystal form A]
Output: > 102 mg/mL

* * *

- assay: Approximate solubility of crystal form A in different solvents (manual stepwise dilution)
- Assay type: physicochemical
- reported_conditions: organic solvent or mixture, thermodynamic from solid; Heptane, ambient temperature
quantity_measured: solubility

Input: Return reported solubility. Input molecule: CC1(c2ccc(=O)n(-c3ccsc3)c2)COC1 [crystal form A]
Output: < 2000 µg/mL
